# ASSAY PROTOCOL: Quantitative High-Throughput drug screen in 47 multiple myeloma cell lines against the NCATS MIPE library collection: RPMI8226_ATCC cell viability assay (AID 1919871); further: nearly all actives have a fitted effect of over 30% in size
# CONDITIONS: RPMI8226 myeloma viability, CellTiter-Glo ATP luminescence, 48 h; series mostly up to 45.8 µM
Results filed as inconclusive are left out. The source made the active and inactive calls. The call rests on the fitted dose curve; in most records, active means well fitted cell-killing curve with a large enough effect; inconclusive means small, poorly fitted or top-dose-only effect, or effect the other way; inactive means no such curve, though single readings can be large or run the other way.
Possible outcomes: active, inactive

MOLECULE | LABEL
CC1(C)SCCN(S(=O)(=O)c2ccc(OCC#CCO)cc2)[C@@H]1C(=O)NO | inactive
Cc1ccccc1C(C(=O)NC1CCCC1)N(C(=O)Cn1cnc2ccccc21)c1cccc(F)c1 (stereo not drawn) | active
CN(C)C(=O)c1ccc(S(=O)(=O)c2ccc(NC(=O)[C@@](C)(O)C(F)(F)F)c(Cl)c2)cc1 | inactive
CNCc1ccc(-c2[nH]c3cc(F)cc4c3c2CCNC4=O)cc1 | inactive
Nc1nccc(-c2ccc3noc(-c4ccc(Cl)cc4)c3c2)n1 | inactive
CCOc1cc(C(=O)Nc2ccc(Cl)c(-c3nc4ccccc4[nH]3)c2)cc(OCC)c1OCC | active
Nc1nc2[nH]cc(CCc3ccc(C(=O)N[C@@H](CCC(=O)O)C(=O)O)cc3)c2c(=O)[nH]1 | active
C[C@]12CC[C@H](O)CC1=CC[C@@H]1[C@H]2CC[C@]2(C)C(c3cccnc3)=CC[C@H]12 | inactive
CC(c1cc2ccccc2s1)N(O)C(N)=O (stereo not drawn) | inactive
CCOC(=O)N[C@@H]1CC[C@@H]2[C@@H](C1)C[C@H]1C(=O)O[C@H](C)[C@H]1[C@@H]2C=Cc1ccc(-c2cccc(F)c2)cn1 | active
COc1ccc(C2=N[C@H](c3ccc(Cl)cc3)[C@H](c3ccc(Cl)cc3)N2C(=O)N2CCNC(=O)C2)c(OC(C)C)c1 | active
COc1c(Cl)cc2c([nH]c3cnccc32)c1NC(=O)c1cccnc1C | inactive
CCCn1c(=O)c2[nH]c(C34CC5CC3C[C@@H](C5)C4)nc2n(CCC)c1=O | active

Provenance of the data: PubChem BioAssay (NCATS)
